The reported measurements were obtained from the nanobody polyreactivity screen of Harvey et al. (2022).

# assay details: yeast display, Sf9 membrane polyspecificity reagent, FACS + sequencing; frameworks hold sequencing errors

polymer sequence	polyreactivity (PSR sort gate)
QVQLVESGGGLVQAGGSLRLSCAASGRTFAVYAMGWYRQAPGKERELVAAISGRGGNTYYADSVKGRFTISRDNAKNTVYFQMNSLKPEDTAVYYCAAKAYQSEYGYWGQGTQVTVSS	high polyreactivity
QVQLVESGGGLVQAGGSLRLSCAASGSTFAYNAMGWYRQAPGKERELVASITVSVGSTYYADSVKGRYTISRDNAKNTVYLQMNRLKPVDTAVYYCAARVTLRSSTYWVPRTGYYYWGQGTQVTVSS	low polyreactivity
QVQLVESGGGLVQAGGSLRLSCAASGRIFYRYSMGWYRQAPGKERELVAAIRYSGGTTYADSVKGRFTISRDNAKNTVYLQMNSLKPEDTAVYYCAARASLWGGFESWGQGTQVTVSS	high polyreactivity
QVQLVESGGGFVQAGGSLRLSFAASGFTFGRYAMGWYIQAPGKERELVAAISWSDGSTYYADSVKGRFTISRDNAKNTVYLQMNSLKPQDTAVYYCAARYGGGISQAKYYYWGQGTQVTVSS	high polyreactivity
QVQLVESGGGFVQAGGSLRLSCAASGSIFDYYTMGWYRQAPGKEREFVAGISDSGGSTNYADSVKGRFTISRDNAKNTVYLQMNSLKPEDTAVYYCNAEYVGWFYKYDYWGQGTQVTVSS	high polyreactivity
QVQLVESGGSLVQAGGSLRLICAASGITFWPYAMGWYRPAPGKERELVAAINSGGDTYYADSVKGRFTISRDNAKNSVYLQMNILKPEDTAVYYCAKGRDWADEEGYEYWGQGTQVTVSS	low polyreactivity
QVQLVESGGGLVQAGGSLRLSCAASGSTFIPYTMGWYRQAPGKERELVAAISGRGGRTYYADSVKGRFTISRDNAKNTVYLQMNSLKPEDTAVYYCNRVLRYGPSAQYDYWGQGTQVTVSS	high polyreactivity
QVHLVESGGGLVQAGGTLRLRCAASGSIFCCNAMGWYRQAPGKERELVAAISTSGGTTYYADSVKGRFTISRDNAKNTVFLQMHSLKPEDTAVYYCAADVYSSRYLYDYWGHGTQVTVSS	low polyreactivity
QVQLEESGGGLVQAGGSLRLSCPASGSIFSWNAMGWYRQSPGKERELVATITWNGGRTYYADSVKGRFTISRDNAKNTVYLQMKSLKPEDTAVYYCAARYYVYWTYPNRVLSYYYWGQRTQVTVSS	high polyreactivity
QVQLVESGGGLVQAGGRLRLSCAASGITFRTYAMGWYREAPGKERELVDAITRRGGSTYYADSVKGRFTISRDNAKNTVYLQMNSLKPEDTAVYYCAVRHNGIQASVGYDYWGQGTQVTGSS	high polyreactivity
QVQLVESGGGLVQAGGSLRLSCAASGSIFGRYAMGWYRQAPGKERELVAAISRTGVSTYYADSVKGRFTISRDNAKNTVYLQMKSLKTEDSAVYYCKAVRLSWQYTYYYWGQGTQVTVSS	high polyreactivity

###

# assay details: yeast display, Sf9 membrane polyspecificity reagent, FACS + sequencing; frameworks hold sequencing errors

polymer sequence	polyreactivity (PSR sort gate)
QVQLVESGGSLVQAGGSLRLSCAASGYTIDSYGMGWYRQAPGKERELVAPIDWSGGSTYYADSVKGRFTIARDTAKNTVYLQKNSLIPDDSAVYYCNRDSAGPGDVILAYTGNDYWGQGTQVTVSS	low polyreactivity
QVQLVESGGGLVQAGGSLRLSCAASGRTFEPNAMGWYRPAPGKERELVAAISSSDGSTYYADSVKGRFTISRDNAKNTVYLQMNSLKPEDTAVYYCAADAGYLYDWPYNYYYWGQGTQVTVSS	low polyreactivity
QVQLVESGGGLVQAGGSLRLSCAASGSTFESYAMGWYRQAPGKERELVAAISWRVGSTYYADSVKGRFTISRDNAKNTVYLQMNSLKPEDTAVYYCASKGWYSHYGGYDYWGQGTQVTVSS	low polyreactivity
QVQHVESGGGIVQAGGSLRLSCAASGSTFRWYAMGWYRQARGQERELVAAFTAGGRTYYADSVKGRFTISRDNAKNTVYLQMNSLKPEDTAVYYCNALGKVWRGGKFGYWGQGTQVTVSS	high polyreactivity
QVQLVESGGGLVQAGGSLRLSCAASGGTFPFNAMGRYRQAPGKEREFVAAISFRGGSTYYADSVKGRFTISRDNAKNTVYLQMNSLKPEDTAVYSCAAYRLRPRNGVYRMDYWGQGTQVTVSS	high polyreactivity
QVQLVESGGGLVQAGGSLRLICAASGSIFAGNAMGWYRQAPGKERELVADITSGDSTYYADSVKGRFTISRDNAKNTVYLQMNSLKPEDTAVYYCAADSWDSQVVSYEYWGQGTQVTVSS	low polyreactivity
QVQLVESGGGLVQAGGSLRLSCAASGNTFYINAMGWYRQAPGKERELVAAINYSGDSTYADSVKGRFTISRDNAKNTVYLQMNSLKPEDSAVYYCAADWYFSVYIDYDTEYDYWGQGTQVTVSS	low polyreactivity
QVQLVESGGGLVQAGGSLRLSCAASGFTFRWYAMGWYRQAPGKERELVASISRRGGSTYYADSVKGRFTISRDNAKNTVYLQMNSLKPEDTAVYYCAADYYDYWGQGTQVTVSS	high polyreactivity
QVQLVESGGGLVQAGGSLRLSCAASGLTLETNAMGWYRQAPGKERELVAGITYSGGTTYYADSVKGRFTISRDNAKNTVYLQMNSLKPEDTAVYYCNAQERRVRDYDYWGQGTEVTVSS	low polyreactivity
QVQLVESGGGLVQAGGSLRLSCAASGRTFVFNAMGWYSPAPGKERDLVAGISGSGGSTYYADSVKGRFTISRDNAKNTVYLQMNSLKPEDTAVYYCATKFPRKELDQDSVSGLGYWGLGTQVTVSS	low polyreactivity
QVQLVESGGGLVQAGGSLRLSCAASGSIFYTNAMGWYRQAPGKERELVAAIRWSGGRTYYADSVKGRFTISRDNAKNTVYLQMNSLKPEDTAVYYCNVVVRYPSAYDYWGQGTQVTVSS	high polyreactivity
QVQLVESGGGLVQAGGSLRLSCAASGSTFYTYAMGWYRKAPGKERELDAAISWSGGSTYYADSVKGRFTISRDNAKNTVYLQMNSLKPEDTAVYYCAADRPYAGRYWKGYHSALYDYWGQGTQVTVSS	low polyreactivity
QVQLVESGGGLVQAGGSLRLSCAASGSTYVSNAMGWYRQAPGKERELVAAISKSGGSTYYGDSVKGRFSISRDTAKNTVYLQMNSLKPEDTAVYYCAASPARYWYGGKEYDYWGQGTQVTVSS	high polyreactivity
QVQVVESGGGLVQAGGSLRLSCAGSGSIFYFYAMGWSRQAPGKARELVATITSGGRTYYADSVKGRFTISRDNAKNTVYLQMISLKPEDTAVYYCNSRPVSYRYSSYIFNYWGQGTQVTVSS	high polyreactivity
QVQLVESGGGLVQSGVSLRLSCAASGSIFDPYAMGWYRPAPGKERELVAAITSGGSTYYADSVKGRFTISRDNAKNTVYLQMNSLKPEDTAVYYCAKDFDIYYSKYDYWGQGTQVTVSS	low polyreactivity
QVQLVESGGGLVQAGGSLRLSSAASGITFPWYAMGWSRQAPGKERELVAAISRSGGSTYADSVKGRFTISRDNAKNTVYLQMNSLKPEDTAVYYCAAGTYSGSRFDYWGQGTQVTVSS	high polyreactivity
QVQLVESGGGLVQAGGSLRLSCAASGSIFRRNAMGWYRQAPGKERELVAAINSRGGSTYYADSVKGRFTISRDNAKNTVYLQMNSLKPEDTAVYYCATARFLRYDRYDDYWGQGTQVTVSS	low polyreactivity
QVQLVESGGGLVQAGGSLRLSCAASGRIFPGYAMGWYRQAPGKERELVAAISERGGSTYYADSVKGRFTISRDNAKNTVYLQMNSLKPEDTAVYYCAAIWRGGYNYWGQGTQVTVSS	low polyreactivity
QVQLVDSGGGLVQAGGSLRLSCAASGFIFAHYAMGWYRPAPGKESELVAAISSRGGSTYYADSVKGRFTISRDNAKNTVYLQMNSLKPEDTAVYYCAKARHRPARGYEYWGQGTQVTVSS	high polyreactivity
QDQLVESGGGLVQAGGSLRLICAASGLIFGFYAMGWYRQAPGKERELVAAINTGGITYYADSVKGRFTISRDNAKYTVYLQMNSLKPEDTAVYYCNKDSHISTAYDYWGQGTQVTVSS	low polyreactivity
QGQLVESGGGLVQAGGSLRLSCAASGRTFTINAMGWYRQATGKERELHAAISSDGNTNYADSVKGRFTISRDNAKNTVYLQMNSLKPEDTAVYYCAADWVRYSYRHGSYRVYYWGQGTQVTVSS	high polyreactivity

###

# assay details: yeast display, Sf9 membrane polyspecificity reagent, FACS + sequencing; frameworks hold sequencing errors
measured quantity: polyreactivity (PSR sort gate)

polymer sequence	measured quantity	meas value
QVQLVESGGGLVQEGGSLRLSCAASGSIFSGYAMGWYRPAPGKERELVAAISSSGGSTYYADSVKGRFTISRDNAKNTVYLQMNSLKPEDTAFYYCAADARWLWVYGAYGGLDYWGQGTQVTLSS	polyreactivity (PSR sort gate)	low polyreactivity
QVQLLESGGGLVQAGGSLRLSCAASGFTFGRYAMGWYRQAPGKERELVAAINTSGDRTFYADSVKGRFTISRDNAKNTVYLQMNSLKPVDTAVYYCAADVQSWVYPGSLYYWTYDFWGQGTQVTVSS	polyreactivity (PSR sort gate)	high polyreactivity
QVQLVQSGGGLFQAGGSLRLSCAASGRTFWSNAMGWYRQAPGKERELVADITFSGGRTYYADSVKGRFTISRDNAKTSVYLQMNRLKPEDTAVYYCSSSATPSGVGMDYWGQGTQVTVSS	polyreactivity (PSR sort gate)	low polyreactivity
QVQLVESGGGLVQAGGSLRLSCAASGFTFRRNAMGWYRQAPGKEMELVASISSRGGITYYADSVKGRFTISRDNAKNTVYLQMNSLNPEDTAVYYCAVRFSRYTSNWRQSYDYWGQGTQVTVSS	polyreactivity (PSR sort gate)	low polyreactivity
QVQLVESGGGLVQAGGSLRLSCAASGRIFPYYAMGWYRQAPGKERELVAAINRGGSTNYADSVKGRFTISRDNAKNTVYLQMNSLKPEDTAVYYCAALSRTHGVSYDYWGQGTQVTVSS	polyreactivity (PSR sort gate)	high polyreactivity
QVQLVESGGGLVQAGGSLRLSCAASGNTFQWYVMGWYRQAPGKERELVAAITTRGGSTYYADSVKGRFTISRDNAKNTVYLQMNSLKPEDTAVYYCAKDWYASWYTKYDYWGQGTQVTVSS	polyreactivity (PSR sort gate)	low polyreactivity
QVQLVESGGGLVQAGGSLRLSCAASGLIFWRYDMGWYRQAPGKERELVAVITSGGNTYYADSVKGRFTISRDNAKNTVYLQMNSLKPEDTAVYYCNADTWRDDYDYWGQGTQVTVSS	polyreactivity (PSR sort gate)	low polyreactivity
QVQLVESGGGLVQAGGSLRLSCAASGFIFRLYAMGWYRQAPGKERELVAAITWSGGSTYYADSVKGRFTISRDNAKNTVYLQMNSLKPEDTAVYYCAAYATKNAFEYWGQGTQVTVSS	polyreactivity (PSR sort gate)	high polyreactivity
PVQLVESGGGVVQAGGSLRVSCAASGSIFYVYAMGWYRQAGGKEWELVAAINPSGGSTFYADSVKGRFTISRDNAKTTDYLQMNSLTPEHTAVYYCAAERYRYRSTDTMGYWGQGTQVTVSS	polyreactivity (PSR sort gate)	low polyreactivity
QVQLVESGGGLVQAGGSLRLRCAASGYIFRYYAMGWYRQAPGKEREFVAAISRNGGSTYYADSVKGRFTISRDKAKNTVYLQMNSLKPEDTAVYNCNVVGHDDKYDYWGQGTQVTVSS	polyreactivity (PSR sort gate)	high polyreactivity
QVQLVESGGGLVQAGGSLRLSCAASGRTFYIYAMGWYRQAPGKERELVAAITSVGSTNYADSVKGRFTISRDNAKNTVYLQMNSLKQEVTAVYYCAAESTEGTSGDYDYWGQGTQVTVSS	polyreactivity (PSR sort gate)	low polyreactivity
